# TARGET_OF_ASSAY: T1, recombinant his-tag human LAG3-ECD protein (human, UniProt P18627 23-450)
# T1 construct: extracellular domain; not shown: his tag
# T1 sequence (looked up): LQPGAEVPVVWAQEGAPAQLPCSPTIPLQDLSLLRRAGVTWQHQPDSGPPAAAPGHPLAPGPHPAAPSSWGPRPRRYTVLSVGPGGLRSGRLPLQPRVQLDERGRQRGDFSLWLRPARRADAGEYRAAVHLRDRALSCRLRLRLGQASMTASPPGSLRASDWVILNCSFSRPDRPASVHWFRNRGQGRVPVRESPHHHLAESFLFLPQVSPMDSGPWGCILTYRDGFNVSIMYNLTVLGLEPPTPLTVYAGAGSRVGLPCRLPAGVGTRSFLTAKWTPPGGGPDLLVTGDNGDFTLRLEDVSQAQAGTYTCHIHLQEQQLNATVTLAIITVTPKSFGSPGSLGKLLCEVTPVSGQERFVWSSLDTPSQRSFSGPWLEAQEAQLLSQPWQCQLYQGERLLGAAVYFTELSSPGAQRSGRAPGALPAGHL
# TEST_NAME: SPR Biacore T200, capture method as Example 2.7
# Kd listing for each entry below
// units = nM; emit number, no label

>  <BINDER>
147H 3550 (antibody, V domains shown) VH: EVQLVQSGAEVKKPGASVKVSCKASGYTFTNYWLGWIKQAPGQGLEWIGDIYPGGDYINYNEKFKGKATLTADTSISTAYMELSRLRSDDTAVYYCARPNLPKDHWGQGTTVTVSS VL: DIVMTQSPLSLPVTPGEPASISCRSSKSLLHSNAITYLYWYLQKPGQSPQLLIYQVSNLASGVPDRFSGSGSGTDFTLKISRVEAEDVGVYYCAQYLELPWTFGGGTKVEIK

>  <Kd / nM>
0.98

$$$$

State, in one line, measured Kd of 147H 3791 (antibody, V domains shown) VH: EVQLVQSGAEVKKPGASVKVSCKASGYTFTNYWLGWIKQAPGQGLEWIGDIYPGGDYIVYNEKFKGKATLTADTSISTAYMELSRLRSDDTAVYYCARPNLPGDYWGQGTTVTVSS VL: DIVMTQSPLSLPVTPGEPASISCRSSKSLLHSNAITYLYWYLQKPGQSPQLLIYQVSNLASGVPDRFSGSGSGTDFTLKISRVEAEDVGVYYCGQNLELPWTFGGGTKVEIK
1.2
